Test system: L1210 leukemia ip in BDF1 mice, survival T/C
method_description: NCI In Vivo Anticancer Drug Screen. Data for tumor model L1210 Leukemia (intraperitoneal) in B6D2F1 (BDF1) mice
condition_parameters: endpoint: mean survival time; dose: 200.0 mg/kg/injection; schedule: Q01DX001 (ip); vehicle: saline; higher = longer survival
Toxic doses and inconclusive results are not listed.
reported_endpoint: T/C

In [3]: df
Out[3]:
                                    compound          measured
 0             CCOc1nc2ccccc2c2cc3ccccc3cc12  109 % of control
 1                             OCCCCN1CCCCC1  101 % of control
 2  COc1ccc(C(=O)C(C)CN2CCOCC2)cc1 (stereo unspecified)  105 % of control
 3  CCOC(=O)C1=NN(c2ccccc2)C(=O)C1N=Nc1ccc(S(=O)(=O)Nc2ccccn2)cc1 (stereo unspecified)   96 % of control
 4  N=[N+]=CC(=O)CC(N)C(=O)O (stereo unspecified)   99 % of control
 5                           Nc1ncc(N)c(N)n1  103 % of control
 6      CSCSCC(N)C(=O)O (stereo unspecified)  100 % of control
 7                    CC[Si](Cl)(CC)c1ccccc1   90 % of control
 8  Nc1nc2c(c(-c3ccccc3)n1)CN(CCCC(=O)O)C2=O  105 % of control
 9  C(=C1/CC2CCC1C2)/c1ccccc1 (stereo unspecified)  103 % of control
10  Cc1coc(NS(=O)(=O)c2ccc(N=Nc3c(N)nc(N)nc3N)cc2)c1C   94 % of control
11  Cc1nc(-c2ccc(N=Cc3ccc(N(CCCl)CCCl)cc3)cc2)cs1   90 % of control
12  CC1(C)NC(C(=O)O)C(C)(C)S1 (stereo unspecified)   89 % of control
13  Nc1c(S(=O)(=O)O)cc(Nc2cccc(CO)c2)c2c1C(=O)c1ccccc1C2=O   93 % of control
14                             N=C1N=C(N)CS1  104 % of control
15        Cc1ccc(/C(Cc2ccccc2)=N\NC(N)=O)cc1   98 % of control
16  Cc1ccc(Cl)cc1NC(=O)N1C(C)CCCC1C (stereo unspecified)  108 % of control
17     Cc1c(/C=N\Nc2ccccc2)[nH]c(=O)[nH]c1=O   92 % of control
18           c1ccc(N=C(c2ccccc2)c2ccccc2)cc1   98 % of control
19               Cc1nc2c(c(=O)[nH]1)OCN(C)C2  109 % of control
20                S=C=Nc1cccc2c(N=C=S)cccc12  110 % of control
21                              CCN(CC)CCC#N  100 % of control
22          CCc1c(C)c2n(c1C)C(=O)C=C2N(CC)CC  102 % of control
23                     NCC(=O)c1ccc(O)c(O)c1   93 % of control
24  CCOC(=O)Cc1ccc2[nH]c(C(=O)OCC)cc(=O)c2c1   90 % of control
25                Cc1ccccc1-n1nnc2ccccc2c1=O   92 % of control
26  C/C(=N/N(CCCCN(/N=C(/C)c1ccccc1)c1ccccc1)c1ccccc1)c1ccccc1   92 % of control
27  O=C(O)CCC1NC(=O)NC1=O (stereo unspecified)   96 % of control
28                            c1cc2n(n1)CCN2  101 % of control
29  O=C1NC(c2ccccc2)C(c2ccccc2)N1 (stereo unspecified)  100 % of control
30  O=C(Nc1ccccc1)NS(=O)(=O)CS(=O)(=O)NC(=O)Nc1ccccc1  102 % of control
31  CCC(C(=O)O)C(C)(C)O (stereo unspecified)   93 % of control
32  CCOC(=O)C1C(CCCCO)CC(=O)CC1(C)C(N)=O (stereo unspecified)   91 % of control
33                CC(=O)c1cc2c(Br)cccc2oc1=O   98 % of control
34                   CCOP(=S)(NN=C1CCCC1)OCC   95 % of control
35                         N#Cc1ccc(O)c(N)c1   90 % of control
36      CC(=O)OC1=C(CC(C)C)C(=O)c2ccccc2C1=O  107 % of control
37  Cc1ccc(C(C#N)c2ccc(N)cc2)cc1 (stereo unspecified)  101 % of control
38  O=P(c1ccccc1)(c1ccccc1)C1(O)CCCCC1Cl (stereo unspecified)   96 % of control
39                       CCCCN(CCCC)C(=O)OCC   94 % of control
40  O=S(=O)(C1CC1c1ccccc1)N1CCOCC1 (stereo unspecified)  106 % of control
41  O=c1[nH]nc(CC(Br)c2ccccc2)o1 (stereo unspecified)   90 % of control
42  Cc1ccc(N2CCN(CC(O)COc3ccccc3Cl)CC2)cc1 (stereo unspecified)   95 % of control
43                  COc1ccc2cc(C(C)=O)ccc2c1  100 % of control
44  Clc1cccc(C[N+]23CC[N+](Cc4cccc(Cl)c4)(CC2)C3)c1  111 % of control
45  Oc1ccccc1C=Nc1ccc(Cc2ccc(N=Cc3ccccc3O)cc2)cc1   90 % of control
46  COc1ccc2c(c1)c(CC(=O)O)c(C)n2C(=O)c1ccc(Cl)cc1   95 % of control
47          CC(=O)c1ccc(Br)c([N+](=O)[O-])c1   98 % of control
48      CCOC(=O)/C(=C\C(C(=O)OCC)C(=O)OCC)CC  103 % of control
49  Nc1nc(N)c(-c2ccc(Cl)cc2)c(/C=C/c2ccc([N+](=O)[O-])cc2)n1   93 % of control
50               COCC/C(COC)=N\N=C(/CCOC)COC  106 % of control

###

System: L1210 leukemia ip in BDF1 mice, survival T/C
method_description: NCI In Vivo Anticancer Drug Screen. Data for tumor model L1210 Leukemia (intraperitoneal) in B6D2F1 (BDF1) mice
condition_parameters: endpoint: mean survival time; dose: 50.0 mg/kg/injection; schedule: Q01DX001 (ip); vehicle: saline; higher = longer survival
Inconclusive results and toxic doses are left out.
molecules and their reported T/C
reported_endpoint: T/C

In [3]: df
Out[3]:
                                   molecule                                       tgt          measured
0               Cc1nc2c(c(=O)[nH]1)OCN(C)C2  L1210 leukemia ip in BDF1 mice, survival T/C  104 % of control
1  Cc1ccc(C(C#N)c2ccc(N)cc2)cc1 (stereo unspecified)  L1210 leukemia ip in BDF1 mice, survival T/C   98 % of control
2                      COc1cccc(N=CN(C)C)c1  L1210 leukemia ip in BDF1 mice, survival T/C   90 % of control
3           c1ccc(N=C(c2ccccc2)c2ccccc2)cc1  L1210 leukemia ip in BDF1 mice, survival T/C  102 % of control
4  COc1ccc(C2(OC)Oc3cc(OC)ccc3-c3nc4ccccc4nc32)cc1 (stereo unspecified)  L1210 leukemia ip in BDF1 mice, survival T/C  101 % of control
5  Nc1nc(N)c(-c2ccc(Cl)cc2)c(/C=C/c2ccc([N+](=O)[O-])cc2)n1  L1210 leukemia ip in BDF1 mice, survival T/C  104 % of control

###

Tested on: L1210 leukemia ip in BDF1 mice, survival T/C
method_description: NCI In Vivo Anticancer Drug Screen. Data for tumor model L1210 Leukemia (intraperitoneal) in B6D2F1 (BDF1) mice
condition_parameters: endpoint: mean survival time; dose: 5.0 mg/kg/injection; schedule: Q01DX001 (ip); vehicle: saline; higher = longer survival
Toxic doses and inconclusive results are not listed.
reported_endpoint: T/C

                                   molecule  reported_endpoint          measured
0                         C1CCC2(CC1)CCCCC2                T/C   97 % of control
1  C=C(C(=O)c1ccccc1)C(NC(C)(C)C)c1ccccc1 (configuration not stated)                T/C   95 % of control
2  OC(c1cccc(C(O)(C(F)(F)F)C(F)(F)F)c1)(C(F)(F)F)C(F)(F)F                T/C   97 % of control
3  c1ccc(C[P+](c2ccccc2)(c2ccccc2)c2ccccc2)cc1                T/C  105 % of control
4                  Clc1cc(N2CC2)nc(N2CC2)n1                T/C  118 % of control
5  CC1(C)N=C(N)N=C(N)N1c1ccc(CCCCc2ccc(Cl)cc2Cl)cc1                T/C   88 % of control
6                   Cc1c(C(=O)NN)sc2ccccc12                T/C  100 % of control
